System: HμRELhumanPool 96-well hepatic co-culture
assay remarks: Hμrel Low Clearance Assay
Assay type: in vitro ADME, human
Design: tested at 1 µM
test parameters: observed CLint divided by average CLint of undeuterated control compound
This section presents compounds with their documented % of Control (intrinsic clearance relative to the control compound) values.
measure: % of Control (intrinsic clearance relative to the control compound) (%)

compound	numeric readout
[2H]C1([2H])N(CC(=O)NC(C)(C)C)C([2H])([2H])C([2H])([2H])C([2H])(CNC(=O)c2cc(F)cc(Cl)c2)C1([2H])[2H] [Compound 1]	38.1
[2H]C1([2H])CN(CC(=O)NC(C)(C)C)CC([2H])([2H])C1CNC(=O)c1cc(F)cc(Cl)c1 [Compound 3]	104
[2H]C1([2H])CN(CC(=O)NC(C([2H])([2H])[2H])(C([2H])([2H])[2H])C([2H])([2H])[2H])CC([2H])([2H])C1CNC(=O)c1cc(F)cc(Cl)c1 [Compound 8]	90.5
[2H]C1([2H])CC(CNC(=O)c2cc(F)cc(Cl)c2)CC([2H])([2H])N1CC(=O)NC(C)(C)C [Compound 2]	85.5
[2H]C([2H])(C(=O)NC(C([2H])([2H])[2H])(C([2H])([2H])[2H])C([2H])([2H])[2H])N1CCC(CNC(=O)c2cc(F)cc(Cl)c2)CC1 [Compound 15]	95.4
[2H]C1([2H])CN(CC(=O)NC(C)(C([2H])([2H])[2H])C([2H])([2H])[2H])CC([2H])([2H])C1CNC(=O)c1cc(F)cc(Cl)c1 [Compound 23]	65.2
[2H]C([2H])([2H])C(NC(=O)CN1C([2H])([2H])C([2H])([2H])C([2H])(CNC(=O)c2cc(F)cc(Cl)c2)C([2H])([2H])C1([2H])[2H])(C([2H])([2H])[2H])C([2H])([2H])[2H] [Compound 12]	47.8
[2H]C([2H])([2H])C(C)(C)NC(=O)CN1CCC(CNC(=O)c2cc(F)cc(Cl)c2)CC1 [Compound 7]	99.6
[2H]C([2H])([2H])C(C)(NC(=O)CN1C([2H])([2H])C([2H])([2H])C([2H])(CNC(=O)c2cc(F)cc(Cl)c2)C([2H])([2H])C1([2H])[2H])C([2H])([2H])[2H] [Compound 20]	56.7
[2H]C([2H])(NC(=O)c1cc(F)cc(Cl)c1)C1CCN(CC(=O)NC(C)(C)C([2H])([2H])[2H])CC1 [Compound 10]	64.3
[2H]C1([2H])CC(CNC(=O)c2cc(F)cc(Cl)c2)CC([2H])([2H])N1CC(=O)NC(C)(C([2H])([2H])[2H])C([2H])([2H])[2H] [Compound 19]	51.5
[2H]C1([2H])CN(CC(=O)NC(C)(C)C([2H])([2H])[2H])CC([2H])([2H])C1CNC(=O)c1cc(F)cc(Cl)c1 [Compound 9]	83.4
